FYI, the data here is from ChEMBL document CHEMBL1201862.

# Test system: SF-268
# ASSAY_REMARKS: NCI tumour cell line growth inhibition, 48 h
The source made the active and inactive calls. No stated cut-off is given here; in the data, active = GI50 up to about 1.1 µM and inactive = higher.
Use one of these outcomes when replying: true = active, false = inactive

Worked examples, 2 compounds total:
COMPOUND	CATEGORY_LABEL
c1ccc2[nH]c3[nH]c4[nH]c5ccccc5[nH]c4[nH]c3[nH]c2c1	false
CCCNC(=O)Cn1c(C)cc2ccccc21	false

Recorded test call requested for CCOC(=O)C(SCCO)C(C(=O)OCC)n1ccc(=O)[nH]c1=O (stereo unspecified) false

# lookup: test call for Oc1ccc2ccccc2c1OCc1nnc(CCCCCCCCc2nnc(COc3c(O)ccc4ccccc34)o2)o1 false

Recorded call for CN(C)/C=N/CC(O)c1ccccc1 (stereo unspecified) ? false

Which outcome was entered for the compound CNC1CC(n2cc(C)c(=O)[nH]c2=O)OC1CO (stereo unspecified) in this test? false

Which outcome did this test record for the compound CC(C)[Si]1(C(C)C)OCC2OC(n3c(C(=O)c4ccccc4)cc(=O)[nH]c3=O)CC2O[Si](C(C)C)(C(C)C)O1 (stereo unspecified) ? false

Hi, do you know how COC1/C=C(C)/C=C/C(C)/C=C/C(=O)OC(/C(C)=C/C=C(\C)CNC(=O)[C@H](CO)NC=O)C(C)/C=C/C=C/C(OC)CC/C=C(C)/C=C/C1 (stereo partly specified) came out in this test? true

Just curious, what result did Cn1nc(-c2ccccc2)nc1[N+](=O)[O-] get here? false

What did this assay record as the result for CCN1CCC(O)(/C=C/c2ccccc2)C(C(=O)/C=C/c2ccccc2)C1 (stereo unspecified) ? false

Each compound tested received a call. Report the one for COc1cc(NCc2ccc3oc(=O)c(-c4ccccc4)nc3c2)cc(OC)c1OC . false

====

# Test system: M14
# ASSAY_REMARKS: NCI tumour cell line growth inhibition, 48 h
Activity calls are given as the source filed them. Cut-off read from the data, not from the text of the source: active = GI50 up to about 1.1 µM and inactive = higher.
PROPERTY_MEASURED: GI50

Examples from the recorded data:
> print(dat)
                                   compound      endpoint.result
1  CC1(C)N=C(N)N=C(N)N1c1ccc(CCCCc2ccc(S(=O)(=O)F)cc2Cl)c(Cl)c1   1.63 µM (inactive)
2  O=C(O)CNC(=O)c1cccc2c(=O)c3ccccc3[nH]c12  > 100 µM (inactive)

Read the next record carefully.
I would be grateful if you could share the reported GI50 for CCC(CC)NC1=C(NC(C)=O)C(=O)c2ccccc2C1=O . > 50 µM (inactive)

====

Measured GI50 accompanies every entry in the list below.
# Test system: SW-620
# ASSAY_REMARKS: NCI tumour cell line growth inhibition, 48 h
Activity calls are given as the source filed them. Cut-off read from the data, not from the text of the source: active = GI50 up to about 1.1 µM and inactive = higher.

Solved entries (count: 4):
> print(dat)
                                   compound  property.measured       endpoint.result
1  NC(CCCC(N)P(=O)(O)c1ccccc1)P(=O)(O)c1ccccc1 (stereo not given)               GI50   > 261 µM (inactive)
2    CC#CCCCC1(C)CCNC1=S (stereo not given)               GI50    > 10 µM (inactive)
3  CC(SC1=CC(=O)c2c(O)ccc(O)c2C1=O)C(=O)O (stereo not given)               GI50  > 40.8 µM (inactive)
4  COc1cc(C[C@H]2C(=O)OC[C@@H]2Cc2ccc(OC)c(OC)c2)cc(OC)c1               GI50    70.6 µM (inactive)

What value of GI50 has been recorded for this entry: OC1CN=C2c3ccccc3C(O)(c3ccc(Cl)cc3)N2C1 (stereo not given) > 100 µM (inactive)
